Form: system (Cryptococcus neoformans Cr-1), quantity (log10 MIC), values below.
Hey, these are logged values: log10 of MIC, µg/mL being the unit before logging.

Batch request: log10 MIC for each of the following compounds.
1. IC#CCn1cnnn1
2. O=[N+]([O-])c1nccn1CC(I)=C(I)I
3. IC(I)=C(I)Cn1ccnc1
4. O=[N+]([O-])c1ccn(CC(I)=C(I)I)c1

Marked response:
1. -0.41
2. 1.40
3. 0.80
4. -0.41

Batch request: log10 MIC for each of the following compounds.
1. IC#CCn1cncn1
2. O=[N+]([O-])c1cn(CC(I)=C(I)I)c(Cl)c1Cl
3. IC#CCn1cccn1
4. IC(I)=C(I)Cn1nnc(-c2ccccc2)n1
5. O=[N+]([O-])c1ccn(CC#CI)c1
6. O=[N+]([O-])c1cn(CC#CI)c(Cl)c1Cl

Marked response:
-0.11
-0.72
-0.11
1.10
-1.05
0.19

---

Please go through the items and note down their MIC.
# System: Penicillium luteum ATCC 9644
Answers are plain numbers, in µg/mL.

# chemical_string, MIC / µg/mL
data = [
    ("IC#CCn1ncnn1", 3.13),
]

Batch request: MIC for each of the following molecules.
1. O=[N+]([O-])c1cc(Cl)n(CC#CI)c1
2. IC(I)=C(I)Cn1ncnn1
3. O=[N+]([O-])c1cc(Cl)n(CC(I)=C(I)I)c1
4. O=[N+]([O-])c1cn(CC(I)=C(I)I)c(Cl)c1Cl

Marked response:
1: 0.39; 2: 6.25; 3: 1.56; 4: 6.25

---

# Tested on: Trichophyton metagrophytes 530324
# assay: Antifungal Activity (in Medicinal Field), MIC
# Format: cell-based
# assay_conditions: Trichophyton metagrophytes 530324; read-out: Minimal Inhibitory Conc. (MIC)
Please go through the items and note down their log10 of MIC.
Hey, these are logged values: log10 of MIC, µg/mL being the unit before logging.

# chemical_string, measure, reported_measurement
data = [
    ("IC(I)=C(I)Cn1ccnc1", "log10 of MIC", 0.19),
    ("CC(=O)Nc1nnn(CC(I)=C(I)I)n1", "log10 of MIC", 0.49),
    ("O=[N+]([O-])c1cn(CC(I)=C(I)I)c(Cl)c1Cl", "log10 of MIC", -0.72),
]

Batch request: log10 of MIC for each of the following molecules.
1. IC(I)=C(I)Cn1ncnn1
2. IC(I)=C(I)Cn1nnc(-c2ccccc2)n1
3. Cc1nnn(CC(I)=C(I)I)n1
4. O=[N+]([O-])c1ccn(CC#CI)c1

Marked response:
[-1.05, 0.19, -0.72, -0.72]

Exam item: Any idea what log10 of MIC was measured for `IC(I)=C(I)Cn1cnnn1` ?
Marked response: -0.41

---

Form: system (Mucor spinescens IAM Mu3), quantity (MIC), values below.
One number for each entry, in µg/mL.

# chemical_string, unit_abbreviation, MIC
records = [
    ("O=[N+]([O-])c1cc(Cl)n(CC#CI)c1", "µg/mL", 0.78),
    ("IC(I)=C(I)Cn1ccnc1", "µg/mL", 6.25),
    ("IC#CCn1cccn1", "µg/mL", 1.56),
    ("Cc1nnn(CC(I)=C(I)I)n1", "µg/mL", 1.56),
]

Batch request: MIC for each of the following compounds.
1. O=[N+]([O-])c1cn(CC#CI)c(Cl)c1Cl
2. IC#CCn1cnnn1
3. IC#CCn1ncnn1

Marked response:
[0.39, 3.13, 3.13]
